Experiment: Volume of distribution in Wistar rat at 5 mg/kg, iv
Type: ADME, organism-based
Parameters: dose 5 mg/kg, route intravenous
Conditions: in vivo
measureName: Vd (L/kg)
Your answer is read as L/kg, so omit the unit and give the number.

Notebook: COc1ccc(OC)c(CNc2ccc3nc(N)nc(N)c3c2Cl)c1 , Vd read as 4.7

* * *

Test: Clearance in CD-1 mouse at 5 mg/kg, iv
Assay type: ADME, organism-based
Parameters: dose 5 mg/kg, route intravenous
Details: in vivo
measureName: clearance (mL/min/kg)
Number only, in mL/min/kg; omit the unit.

So, COc1ccc(OC)c(CNc2ccc3nc(N)nc(N)c3c2Cl)c1 ? Its clearance was 51.1

* * *

Can you tell me Ki for the items I'm about to list?
Assay: Binding affinity to recombinant Plasmodium falciparum V1/S DHFR S108N, N51I, C59R, I164L mutant by competitive binding assay
Design: species or system V1S
Please state the figure in nM; there is no need to write the unit.

Value of measured Ki for the entry CCc1nc(N)nc(N)c1-c1ccc(Cl)cc1 : 385

Ki reported for this compound COc1ccc(OC)c(CNc2ccc3nc(N)nc(N)c3c2Cl)c1 : 0.58

Data point: CC1(C)N=C(N)N=C(N)N1OCCCOc1cc(Cl)c(Cl)cc1Cl ; Ki = 1.9

// Ki value for CC1(C)N=C(N)N=C(N)N1c1ccc(Cl)cc1 : 454
